Here, each record is paired with measured thermal shift delta Tm data.
system: LOC_OS01G57100-cb003; experiment: thermal shift delta Tm vs DMSO control; higher = stronger stabilization (binding); details: 12.5 µM; protein concentration 2 µM;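 further: purified Escherichia coli-expressed rice kinase domain construct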
Give your result in °C as a bare value.

Completed entries (count: 3):
CNC(=O)c1ccc(Nc2ncc(C(F)(F)F)c(NCc3nccnc3N(C)S(C)(=O)=O)n2)cc1 : 0.61
Cc1nc(-c2cn3c(n2)-c2ccc(-c4cnn(C(C)(C)C(N)=O)c4)cc2OCC3)n(C(C)C)n1 : 0.43
CNC(=O)Nc1ccc(-c2nc(N3CC4CCC(C3)O4)c3cnn(C4CCC5(CC4)OCCO5)c3n2)cc1 : 2.76

[in] Any idea what its thermal shift delta Tm is? The compound is CC(C)(C)Cn1c(N)nc2ccc(-c3[nH]c(C(C)(C)C)nc3-c3ccc(F)cc3)nc21
[out] -3.53

[in] Which thermal shift delta Tm is reported for this compound? C[C@H](CN(C)C)Oc1nc(Nc2cc3cccc(Cl)c3cn2)cnc1C#N
[out] 0.95

[in] Given the compound C=CC(=O)Nc1cccc(Oc2nc(Nc3ccc(N4CCN(C)CC4)cc3OC)ncc2Cl)c1 , what is its reported thermal shift delta Tm?
[out] -0.16

[in] Would you kindly share the measured thermal shift delta Tm for CCN(C)S(=O)(=O)Nc1ccc(F)c(C(=O)c2c[nH]c3ncc(-c4cnc(C5CC5)nc4)cc23)c1F ?
[out] 1.23

[in] Consider the compound shown here: COc1cc(CCc2cc(NC(=O)c3ccc(N4CC(C)NC(C)C4)cc3)n[nH]2)cc(OC)c1 (stereo not drawn) What is its recorded thermal shift delta Tm?
[out] 0.84

[in] Record request: thermal shift delta Tm value, item CN1c2ccccc2C(=O)Nc2cnc(Nc3ccc(N4CCC(O)CC4)cc3)nc21
[out] 0.2

[in] // returns reported thermal shift delta Tm for input CC(C)NC[C@@H](C(=O)N1CCN(c2ncnc3c2[C@H](C)C[C@H]3O)CC1)c1ccc(Cl)cc1
[out] 0.44

[in] Requested field: thermal shift delta Tm. Item: CC(C)NC(=O)COc1cccc(-c2nc(Nc3ccc4[nH]ncc4c3)c3ccccc3n2)c1
[out] 1.14

[in] I'd like to know its thermal shift delta Tm. The compound in question is CC1(C)OC(=O)C=C[C@]2(C)[C@H]3CC[C@@]4(C)[C@H](c5ccoc5)OC(=O)[C@H]5O[C@]54[C@]3(C)C(=O)C[C@@H]12
[out] 1.14

[in] thermal shift delta Tm for COc1ccc(Cl)c(Nc2nc3ccccc3nc2NS(=O)(=O)c2cccc(NC(=O)C(C)(C)N)c2)c1 ?
[out] 0.77

* * *

test system: LOC_OS01G60330-cb001; assay: thermal shift delta Tm vs DMSO control; higher = stronger stabilization (binding); settings: 12.5 µM; protein concentration 2 µM
assay-metric: thermal shift delta Tm
Remember to quote the unit after the number.

These recorded examples may help you get a feel for the data.
CN1CCN(S(=O)(=O)c2ccc(-c3cnc(N)c(C(=O)Nc4cccnc4)n3)cc2)CC1 : 1.53 °C
COc1ccc(COc2ccc(Cc3cnc(N)nc3N)cc2OC)cc1 : 0.76 °C

[in] API: value(readout=thermal shift delta Tm, system=LOC_OS01G60330-cb001) for record CO[C@H]1C[C@@H]2CC[C@@H](C)[C@@](O)(O2)C(=O)C(=O)N2CCCC[C@H]2C(=O)O[C@H]([C@H](C)C[C@@H]2CC[C@@H](O)[C@H](OC)C2)CC(=O)[C@H](C)/C=C(\C)[C@@H](O)[C@@H](OC)C(=O)[C@H](C)C[C@H](C)/C=C/C=C/C=C/1C [Rapamycin (Sirolimus)]
[out] 1.82 °C

[in] Request body: readout thermal shift delta Tm, system LOC_OS01G60330-cb001, query COc1cc2ccc(=O)oc2cc1O [Scopoletin] . Return the value.
[out] 0.02 °C

[in] Item COc1cc2nccc(Oc3ccc(NC(=O)C4(C(=O)Nc5ccc(F)cc5)CC4)cc3)c2cc1OC with LOC_OS01G60330-cb001 - thermal shift delta Tm?
[out] 2.17 °C

[in] Lab note: need thermal shift delta Tm with LOC_OS01G60330-cb001 for entry O=C(Nc1cc(C(F)(F)F)cc(C(F)(F)F)c1)c1cc(Cl)ccc1O , please look it up.
[out] 1.34 °C

[in] Requested read-out thermal shift delta Tm, target or system LOC_OS01G60330-cb001, entry O=C(O)CCC(=O)Nc1ccc(Br)cn1 [Bikinin]
[out] 0.91 °C

* * *

system: LOC_OS01G10900-cb004; assay: thermal shift delta Tm vs DMSO control; higher = stronger stabilization (binding); details: 12.5 µM; protein concentration 2 µM
thermal shift delta Tm of 0.8 °C or higher: 1. Under 0.8 °C: 0.

Cc1cc(C)c(/C=C2\C(=O)Nc3ccccc32)[nH]1 [Semaxanib (SU5416)] : 0
O=C1Nc2ccccc2/C1=C1/Nc2ccccc2C1=O [Indirubin] : 1
Cc1ccc(F)c(NC(=O)Nc2ccc(-c3cccc4[nH]nc(N)c34)cc2)c1 [Linifanib (ABT-869)] : 1
COc1ccc(Oc2cc(NCCC(F)(F)F)c3ncc(-c4ccc(C(=O)NC5CC5)c(C)c4)n3n2)c(F)c1F : 0
CC(C)n1nc(-c2ccc3oc(N)nc3c2)c2c(N)ncnc21 : 0
Nc1nc(N)c(N=O)c(OCC2CCCCC2)n1 : 0

[in] Item Cc1cc(CS(=O)(=O)c2ccccc2)cc(OCc2ccc(CN3CCC[C@@H]3CO)cc2)c1 with thermal shift delta Tm of 0.8 °C or above?
[out] 0

[in] thermal shift delta Tm >= 0.8 °C for C[C@H](Nc1ncnc2[nH]cnc12)c1cc2ccc(F)cc2nc1-c1ccccn1 ?
[out] 0

[in] State whether the measured thermal shift delta Tm reaches 0.8 °C, counting equality as reaching it, for CNC(=O)c1ccc(Nc2ncc(C(F)(F)F)c(NCc3nccnc3N(C)S(C)(=O)=O)n2)cc1
[out] 1

* * *

tested on: LOC_OS01G13800-cb001; test: thermal shift delta Tm vs DMSO control; higher = stronger stabilization (binding); details: 12.5 µM; protein concentration 2 µM
assay-metric: thermal shift delta Tm (°C)
Hi! Could you send only the number? It should be in °C, unit omitted.

[in] Fill in the blank: the reported thermal shift delta Tm of Cn1cc(C2=C(c3ccc(Cl)cc3Cl)C(=O)NC2=O)c2ccccc21 is ____.
[out] 1.69

[in] Reported thermal shift delta Tm for CNC(=O)c1nn(C)c2c1C(C)(C)Cc1cnc(Nc3ccc(N4CCN(C)CC4)cc3)nc1-2 : what is it?
[out] -1.53

[in] Param item = Cc1cc(CS(=O)(=O)c2ccccc2)cc(OCc2ccc(CN3CCC[C@@H]3CO)cc2)c1 ; retrieve measured thermal shift delta Tm.
[out] -0.27

[in] Need thermal shift delta Tm, item O=C(Nc1ccc(OC(F)(F)F)cc1)c1sccc1NCc1ccnc2ccccc12
[out] 0.57

[in] Dear colleague, I am looking for the recorded thermal shift delta Tm of the following molecule: CCN1CCN(Cc2ccc(Nc3ncc(F)c(-c4cc(F)c5nc(C)n(C(C)C)c5c4)n3)nc2)CC1
[out] -0.66

[in] Quick one: thermal shift delta Tm for Cc1ncc(-c2ccnc(Nc3ccc(S(C)(=O)=O)cc3)n2)n1C(C)C ?
[out] 0.21

* * *

system: LOC_OS05G07850-cb002; assay: thermal shift delta Tm vs DMSO control; higher = stronger stabilization (binding); settings: 12.5 µM; protein concentration 2 µM
Reported values of thermal shift delta Tm for individual entries
Your answer should be a number followed by the unit of measure.

Known thermal shift delta Tm results, listed for orientation:
O=C1NC(=O)C(=Cc2ccc(-c3ccc(F)cc3)o2)S1 (stereo in doubt) : 1.37 °C
CNS(=O)(=O)C[C@H]1CC[C@H](N(C)c2[nH]cnc3nccc2-3)CC1 : 7.33 °C

[in] What value of measured thermal shift delta Tm is listed for COc1cc2c(c(OC)c1OC)-c1c(cc3c(c1OC)OCO3)CC(C)C(C)C2 (stereo not given) [Schisandrin B (Sch B)] ?
[out] 1.23 °C

* * *

thermal shift delta Tm for assorted molecules
system: LOC_OS02G14120-cb001; experiment: thermal shift delta Tm vs DMSO control; higher = stronger stabilization (binding); conditions: 12.5 µM; protein concentration 2 µM
Field format: number, assumed °C, no unit text.

Worked examples, 4 molecules total:
COc1cc(OC)cc(N(CCNC(C)C)c2ccc3ncc(-c4cnn(C)c4)nc3c2)c1 : 2.34
Nc1nc(N)c2nc(-c3cccc(O)c3)c(-c3cccc(O)c3)nc2n1 : 1.95
Clc1ccc(C2(c3ccc(-c4cn[nH]c4)cc3)CCNCC2)cc1 : 0.25
CCN(CC)CCNC(=O)c1c(C)[nH]c(/C=C2\C(=O)Nc3ccc(-c4csc(-c5ccccc5)n4)cc32)c1C [Amcasertib (BBI503)] : 4.69

[in] Need thermal shift delta Tm of COc1ccc(/C=C/C(=O)C2(C(=O)/C=C/c3ccc(OC)c(OC)c3)CCCCC2)cc1OC , thanks.
[out] 0.46
